# test: Metabolic stability in human liver microsomes at 1 or 50 uM measured after 30 to 60 mins in presence of cofactor by LC-MS/MS analysis
# Assay type: ADME
Mark Met only when Stability stays strictly below 20%. Values equal to the cut-off are Not met.

Illustrative cases are given below, each with its answer.
{"columns": ["chemical smiles", "discrete label"],
 "data": [
  ["C[Si]1(C)CCN(Cc2nn(-c3ccc(Cl)cc3Cl)c(-c3ccc(Cl)cc3)c2CO)CC1", "Met"],
  ["Cc1c(CN2CC[Si](C)(C)CC2)nn(-c2ccc(Cl)cc2Cl)c1-c1ccc(Cl)cc1", "Met"],
  ["Clc1ccc(-c2cc(CN3CCCCC3)nn2-c2ccc(Cl)cc2)cc1", "Not met"]
]}

Criterion: Stability strictly below 20%. Is it met by `C[Si]1(C)CCN(NCc2cc(-c3ccc(Cl)cc3)n(-c3ccc(Cl)cc3)n2)CC1` ?
Not met

Take the compound `C[Si]1(C)CCN(C(=O)c2cc(-c3ccc(Cl)cc3)n(-c3ccc(Cl)cc3)n2)CC1` and say whether its Stability is less than 20%.
Met

---

# test: Selectivity index, ratio of IC50 for human A549 cells to MIC for Mycobacterium tuberculosis H37Rv
# Assay type: toxicity, cell-based
# experimental setup: read-out: Ratio IC50
// condition not met strictly below 5 in selectivity ratio; condition met otherwise

As a guide, the following entries are already answered.
{"columns": ["chemical smiles", "discrete label"],
 "data": [
  ["Cc1c(CN2CCN(C)CC2)cc(-c2ccc(Cl)cc2)n1-c1ccc(Cl)cc1", "condition met"],
  ["Cc1c(CNCc2ccccc2)nn(-c2ccc(Cl)cc2Cl)c1-c1ccc(Cl)cc1", "condition not met"],
  ["C[Si]1(C)CCN(Cc2cc(-c3ccc(Cl)cc3)n(-c3ccc(Cl)cc3)n2)CC1", "condition met"],
  ["C[Si]1(C)CCN(C(=O)c2cc(-c3ccc(Cl)cc3)n(-c3ccc(Cl)cc3)n2)CC1", "condition not met"],
  ["Cc1c(CN2CC[Si](C)(C)CC2)nn(-c2ccc(Cl)cc2Cl)c1-c1ccc(Cl)cc1", "condition met"]
]}

State whether the measured selectivity ratio reaches 5, counting equality as reaching it, for `Cc1c(CN(C)C)nn(-c2ccc(Cl)cc2Cl)c1-c1ccc(Cl)cc1`
condition not met

For this compound, is measured selectivity ratio 5 or higher? `Cc1c(CN2CCN(C)CC2)nn(-c2ccc(Cl)cc2Cl)c1-c1ccc(Cl)cc1`
condition not met

Is it the case that `C[Si]1(C)CCN(NCc2cc(-c3ccc(Cl)cc3)n(-c3ccc(Cl)cc3)n2)CC1` has selectivity ratio reaching or exceeding 5?
condition met

Decide: is the reported value of selectivity ratio for `Cc1c(CN2CCCCC2)nn(-c2ccc(Cl)cc2Cl)c1-c1ccc(Cl)cc1` equal to or greater than 5?
condition not met

---

# test: Protein binding human plasma at 150 uM measured after 30 mins by equilibrium dialysis method
# Type: ADME, cell-free
# experimental setup: read-out: PPB (converted)
measurement label: fraction unbound at 0.5 h, 150 µM
Reply: number alone, nothing else.

Some entries whose results are on file:
{"columns": ["chemical smiles", "fraction unbound at 0.5 h, 150 µM"],
 "data": [
  ["Clc1ccc(-c2cc(CN3CCCCC3)nn2-c2ccc(Cl)cc2)cc1", 0.0011],
  ["C[Si]1(C)CCN(Cc2cc(-c3ccc(Cl)cc3)n(-c3ccc(Cl)cc3)n2)CC1", 0.0007],
  ["C[Si]1(C)CCN(C(=O)c2cc(-c3ccc(Cl)cc3)n(-c3ccc(Cl)cc3)n2)CC1", 0.0001],
  ["C[Si]1(C)CCN(Cc2nn(-c3ccc(Cl)cc3Cl)c(-c3ccc(Cl)cc3)c2CO)CC1", 0.0004],
  ["C[Si]1(C)CCN(NCc2cc(-c3ccc(Cl)cc3)n(-c3ccc(Cl)cc3)n2)CC1", 0.0069],
  ["Cc1c(CN2CCN(C)CC2)cc(-c2ccc(Cl)cc2)n1-c1ccc(Cl)cc1", 0.0077]
]}

With those in mind, consider the next compound.
Would you kindly share the measured fraction unbound at 0.5 h, 150 µM for `Cc1c(CN2CC[Si](C)(C)CC2)nn(-c2ccc(Cl)cc2Cl)c1-c1ccc(Cl)cc1` ?
0.0005
